# test.system: T1, ヒト組織因子経路インヒビター (human TFPI) (human, UniProt P10646 29-304, limits assumed)
# T1 construct: Coated on Maxisorp plates (ELISA) or amine-coupled to a CM5 chip (Biacore); also called ヒトTFPI; hTFPI
# T1 sequence (looked up): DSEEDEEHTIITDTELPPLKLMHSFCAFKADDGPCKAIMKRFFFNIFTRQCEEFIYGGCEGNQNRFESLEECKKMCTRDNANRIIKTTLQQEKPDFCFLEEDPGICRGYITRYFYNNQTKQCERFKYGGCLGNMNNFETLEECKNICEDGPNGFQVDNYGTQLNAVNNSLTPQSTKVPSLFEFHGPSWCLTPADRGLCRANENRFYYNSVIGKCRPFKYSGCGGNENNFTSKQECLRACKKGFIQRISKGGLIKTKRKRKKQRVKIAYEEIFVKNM
# protocol.notes: ELISA, Fab in bacterial lysate on human TFPI-coated plate
measure: binding result

binder="TP-3C2 (Fab, V domains shown, Human Fab (HuCal Gold), made in E. coli TG1) VH: QVQLQQSGPGLVKPSQTLSLTCAISGDSVSSSSAAWSWIRQSPGRGLEWLGMIYYRSKWYNHYAVSVKSRITINPDTSKNQFSLQLNSVTPEDTAVYYCARGGSGVMDVWGQGTLVTVSS VL: DIQMTQSPSSLSASVGDRVTITCRASQSITNYLNWYQQKPGKAPKLLIYDVSNLQSGVPSRFSGSGSGTDFTLTISSLQPEDFAVYYCQQYSGYPLTFGQGTKVEIKR" measure="binding result" result=binds
binder="TP-2E5 (Fab, V domains shown, Human Fab (HuCal Gold), made in E. coli TG1) VH: QVQLQQSGPGLVKPSQTLSLTCAISGDSVSSNSAAWSWIRQSPGRGLEWLGMIFYRSKWNNDYAVSVKSRITINPDTSKNQFSLQLNSVTPEDTAVYYCARVNANGYYAYVDLWGQGTLVTVSS VL: DIQMTQSPSSLSASVGDRVTITCRASQPIYNSLSWYQQKPGKAPKLLIYGVSNLQSGVPSRFSGSGSGTDFTLTISSLQPEDFAVYYCLQVDNLPITFGQGTKVEIKR" measure="binding result" result=binds
